Measured pKd values are reported for all entries that follow.
Biological target: T1, EsCas13d, nuclease-dead (Eubacterium siraeum, UniProt B0MS50, R295A;H300A;R849A;H854A)
T1 sequence: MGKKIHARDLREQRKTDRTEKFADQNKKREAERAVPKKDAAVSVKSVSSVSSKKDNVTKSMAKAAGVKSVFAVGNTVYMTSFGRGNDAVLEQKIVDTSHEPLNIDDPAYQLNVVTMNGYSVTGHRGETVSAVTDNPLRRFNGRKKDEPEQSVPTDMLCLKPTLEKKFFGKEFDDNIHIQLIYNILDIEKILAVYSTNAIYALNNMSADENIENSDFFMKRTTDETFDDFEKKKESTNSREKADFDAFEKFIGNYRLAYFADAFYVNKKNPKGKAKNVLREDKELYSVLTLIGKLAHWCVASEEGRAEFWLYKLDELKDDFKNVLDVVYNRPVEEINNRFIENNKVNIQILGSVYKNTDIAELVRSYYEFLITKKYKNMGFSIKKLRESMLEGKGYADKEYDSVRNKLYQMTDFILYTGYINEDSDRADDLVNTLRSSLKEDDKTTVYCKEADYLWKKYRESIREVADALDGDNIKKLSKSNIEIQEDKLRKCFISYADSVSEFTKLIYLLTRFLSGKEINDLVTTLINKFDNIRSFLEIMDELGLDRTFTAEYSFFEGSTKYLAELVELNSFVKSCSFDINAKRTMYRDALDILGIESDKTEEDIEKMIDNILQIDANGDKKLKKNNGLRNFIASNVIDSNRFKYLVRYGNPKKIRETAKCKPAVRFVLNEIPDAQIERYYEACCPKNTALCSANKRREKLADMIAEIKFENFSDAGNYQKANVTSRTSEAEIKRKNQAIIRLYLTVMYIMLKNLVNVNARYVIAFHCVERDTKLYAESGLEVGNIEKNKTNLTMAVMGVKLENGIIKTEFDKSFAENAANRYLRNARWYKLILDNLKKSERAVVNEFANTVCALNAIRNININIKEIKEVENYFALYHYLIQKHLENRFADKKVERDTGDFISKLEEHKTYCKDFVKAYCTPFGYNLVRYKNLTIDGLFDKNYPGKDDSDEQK
Experiment: crRNA (strand 1, pre-loaded); Mg2+; 40 mM Tris-HCl pH 7.5, 150 mM NaCl, 6 mM MgCl2, 1 mM DTT, 0.1% Tween-20, 0.2 mg/ml BSA; 25 C; 10 min per concentration, then washed
Conditions: tags: His6-TwinStrep-SUMO cleaved; N-terminal SNAP kept (SNAP-Surface 488); label: 3' end held by stalled T7 RNA polymerase
pKd: −log10 of the molar value.
Quantity measured: pKd

[
  {
    "Binder": "target 3 insC 3' of 7,insA 3' of 7 (mixed) RNA 1: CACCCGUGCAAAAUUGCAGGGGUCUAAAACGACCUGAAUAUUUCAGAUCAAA RNA 2: GGGAAUGGAUCCACAUCUACGAAUUCGUUUUUGAUCUGAAAUAUUCACAGGUCUGCAGAUCGGAAGAGCACACGU",
    "Val": 7.96
  },
  {
    "Binder": "target 1 U10A,G15A (mixed) RNA 1: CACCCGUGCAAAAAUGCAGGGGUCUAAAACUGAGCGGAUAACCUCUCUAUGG RNA 2: GGGAAUGGAUCCACAUCUACGAAUUCGUACCAUAGAAAGGUAAUCCGCUCACCGAGAUCGGAAGAGCACACGU",
    "Val": 7.51
  },
  {
    "Binder": "target 1 A14G,A16G (mixed) RNA 1: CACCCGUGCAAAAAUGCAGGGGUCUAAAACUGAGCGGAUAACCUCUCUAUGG RNA 2: GGGAAUGGAUCCACAUCUACGAAUUCGUACCAUAGGGGGGUUAUCCGCUCACCGAGAUCGGAAGAGCACACGU",
    "Val": 7.46
  },
  {
    "Binder": "target 1 U11C,G12C (mixed) RNA 1: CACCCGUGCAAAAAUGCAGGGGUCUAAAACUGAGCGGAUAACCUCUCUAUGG RNA 2: GGGAAUGGAUCCACAUCUACGAAUUCGUACCAUAGAGAGCCUAUCCGCUCACCGAGAUCGGAAGAGCACACGU",
    "Val": 7.77
  },
  {
    "Binder": "target 2 MT 5'PFS GGG 3'PFS CGU (mixed) RNA 1: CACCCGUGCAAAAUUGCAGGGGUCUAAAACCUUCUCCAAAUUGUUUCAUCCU RNA 2: GGGAAUGGAUCCACAUCUACGAAUUCGGGAGGAUGAAACAAUUUGGAGAAGCGUAGAUCGGAAGAGCACACGU",
    "Val": 8.01
  },
  {
    "Binder": "target 1 insC 3' of 19,insG 3' of 7 (mixed) RNA 1: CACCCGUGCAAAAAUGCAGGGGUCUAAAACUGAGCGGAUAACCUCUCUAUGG RNA 2: GGGAAUGGAUCCACAUCUACGAAUUCGUACCAUCAGAGAGGUUAUCGCGCUCACCGAGAUCGGAAGAGCACACGU",
    "Val": 7.62
  },
  {
    "Binder": "target 1 insG 3' of 9,insG 3' of 2 (mixed) RNA 1: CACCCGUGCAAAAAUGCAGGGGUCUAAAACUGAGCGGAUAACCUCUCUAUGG RNA 2: GGGAAUGGAUCCACAUCUACGAAUUCGUACCAUAGAGAGGUUAGUCCGCUCGACCGAGAUCGGAAGAGCACACGU",
    "Val": 7.76
  },
  {
    "Binder": "target 1 MT 5'PFS GUG 3'PFS UGG (mixed) RNA 1: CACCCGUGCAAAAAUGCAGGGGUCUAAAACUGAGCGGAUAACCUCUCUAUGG RNA 2: GGGAAUGGAUCCACAUCUACGAAUUCGUGCCAUAGAGAGGUUAUCCGCUCAUGGAGAUCGGAAGAGCACACGU",
    "Val": 6.96
  },
  {
    "Binder": "target 1 A9C,C22U (mixed) RNA 1: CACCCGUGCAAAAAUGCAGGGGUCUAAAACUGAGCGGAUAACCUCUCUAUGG RNA 2: GGGAAUGGAUCCACAUCUACGAAUUCGUAUCAUAGAGAGGUUCUCCGCUCACCGAGAUCGGAAGAGCACACGU",
    "Val": 7.27
  },
  {
    "Binder": "target 1 A9G,U11G (mixed) RNA 1: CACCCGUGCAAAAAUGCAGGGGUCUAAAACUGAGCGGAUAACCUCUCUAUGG RNA 2: GGGAAUGGAUCCACAUCUACGAAUUCGUACCAUAGAGAGGGUGUCCGCUCACCGAGAUCGGAAGAGCACACGU",
    "Val": 7.82
  },
  {
    "Binder": "target 2 MT 5'PFS UAU 3'PFS UAU (mixed) RNA 1: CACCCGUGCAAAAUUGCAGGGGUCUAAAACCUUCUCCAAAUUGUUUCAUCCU RNA 2: GGGAAUGGAUCCACAUCUACGAAUUCUAUAGGAUGAAACAAUUUGGAGAAGUAUAGAUCGGAAGAGCACACGU",
    "Val": 7.46
  },
  {
    "Binder": "target 1 MT 5'PFS UAA 3'PFS UCU (mixed) RNA 1: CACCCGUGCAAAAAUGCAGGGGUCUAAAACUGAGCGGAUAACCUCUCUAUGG RNA 2: GGGAAUGGAUCCACAUCUACGAAUUCUAACCAUAGAGAGGUUAUCCGCUCAUCUAGAUCGGAAGAGCACACGU",
    "Val": 7.35
  },
  {
    "Binder": "target 2 MT 5'PFS GAC 3'PFS CUC (mixed) RNA 1: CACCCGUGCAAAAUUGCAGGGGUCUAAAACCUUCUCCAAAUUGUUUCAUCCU RNA 2: GGGAAUGGAUCCACAUCUACGAAUUCGACAGGAUGAAACAAUUUGGAGAAGCUCAGAUCGGAAGAGCACACGU",
    "Val": 7.92
  }
]

Each recorded value in this set is attributed to paper PMC10786891.
